B1: library; numbered along this chain (parent)
chain: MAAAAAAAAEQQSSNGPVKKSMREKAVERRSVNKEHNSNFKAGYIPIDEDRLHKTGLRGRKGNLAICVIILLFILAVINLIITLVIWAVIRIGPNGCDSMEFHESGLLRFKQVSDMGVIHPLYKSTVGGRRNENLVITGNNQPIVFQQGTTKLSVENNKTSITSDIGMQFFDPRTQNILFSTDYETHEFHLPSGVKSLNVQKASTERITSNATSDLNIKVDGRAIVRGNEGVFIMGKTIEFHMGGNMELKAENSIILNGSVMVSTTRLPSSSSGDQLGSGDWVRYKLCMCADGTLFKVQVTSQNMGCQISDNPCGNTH

variants of: B1; experiment: SGCB cell-surface expression functional score (HA stain, bin4 vs bin1, normalised to synonymous) (log10 ratio); higher = more cell-surface SGCB (functional)
The threshold is inclusive: SGCB cell-surface expression functional score (log10) of exactly -0.7 counts as true; values below receive false.

>  <mutant.designation>
L135S

>  <assigned.class>
false

$$$$
>  <mutant.designation>
C314M

>  <assigned.class>
false

$$$$
>  <mutant.designation>
S260K

>  <assigned.class>
false

$$$$
>  <mutant.designation>
Q299T

>  <assigned.class>
true

$$$$
>  <mutant.designation>
S271F

>  <assigned.class>
true

$$$$
>  <mutant.designation>
W87N

>  <assigned.class>
true

$$$$
>  <mutant.designation>
K111G

>  <assigned.class>
false

$$$$
>  <mutant.designation>
N246I

>  <assigned.class>
true

$$$$
>  <mutant.designation>
G280P

>  <assigned.class>
true

$$$$
>  <mutant.designation>
R29G

>  <assigned.class>
true

$$$$
>  <mutant.designation>
S99H

>  <assigned.class>
true

$$$$
>  <mutant.designation>
N217K

>  <assigned.class>
true

$$$$
>  <mutant.designation>
V263P

>  <assigned.class>
false

$$$$
>  <mutant.designation>
S181Q

>  <assigned.class>
false

$$$$
>  <mutant.designation>
E133I

>  <assigned.class>
true

$$$$
>  <mutant.designation>
P46Y

>  <assigned.class>
true

$$$$
>  <mutant.designation>
S99D

>  <assigned.class>
false

$$$$
>  <mutant.designation>
T126K

>  <assigned.class>
true

$$$$
>  <mutant.designation>
D215Q

>  <assigned.class>
false

$$$$
>  <mutant.designation>
N37Q

>  <assigned.class>
true

$$$$
>  <mutant.designation>
A203I

>  <assigned.class>
true

$$$$
>  <mutant.designation>
I166F

>  <assigned.class>
true

$$$$
